Test: chemical genetic growth profiling, strain panel (AID 1159580);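 also: tested at 20 µM; growth read once vehicle control cultures reached saturation at 30 °C; 1 = growth at the plate median or of vehicle wells; lower values mean less growth of the strain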
Details: S. cerevisiae deletion strains, growth OD, locus YLR058C, strain SHM2, stronger effect = lower value
Among all 5,500 compounds or so, about 2,000 (36%) were called active. Roughly 18% stayed inconclusive and do not appear here. Some of the results follow.
MEASURED_QUANTITY: normalized growth
Give bare numbers.

Field: example entries. Status: answers known.
molecule="CN1CC(CNC(=O)OCc2ccccc2)CC2c3cccc4c3c(cn4C)CC21 (stereo not drawn)" observed_result=0.988
molecule=O=c1cc(-c2ccccc2)oc2cc(O)cc(O)c12 observed_result=0.965
molecule="CC1(C)C(O)CC(O)C2(C)C1CC(O)C1(C)C2CCC2(C)C(c3ccoc3)OC(=O)C3OC321 (stereo not drawn)" observed_result=1.02
molecule="CN(C)CCC(c1ccc(Br)cc1)c1ccccn1 (stereo not drawn)" observed_result=0.991
molecule="COC(=O)CCC(=O)O[C@H]1CCC2(C)C(CCC3C2C(=O)[C@@H](O)C2(C)C3CC3OC4(CCC(C)CO4)[C@@H](C)C32)C1 (stereo partly drawn)" observed_result=1

Would you be so kind as to report normalized growth for each listed record?
1. C=C1[C@H]2CC[C@@]3(C)[C@H](c4ccoc4)OC(=O)C[C@]13O[C@H]1C[C@H](O)C(C)(C)[C@H](CC(=O)OC)[C@]12C
2. C[C@H](CCC(=O)O)[C@H]1CCC2C3C(CC[C@@]21C)[C@@]1(C)CC[C@@H](O)C[C@H]1C[C@@H]3O (stereo partly drawn)
3. C[C@H](CCC(=O)O)[C@H]1CCC2C3C(CC[C@@]21C)[C@@]1(C)CC[C@@H](O)C[C@H]1C[C@H]3O (stereo partly drawn)
4. O=C(O)Cc1cc(I)c(Oc2cc(I)c(O)c(I)c2)c(I)c1

Reply text:
1. 1.01
2. 0.984
3. 1.01
4. 0.959
